// reported %Inh for each item listed
tested on: FLT1; details: concentration: 1 μM, replicates: in singlicate; n = 1;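 note: KINOMEscan kinase panel screen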
The reply should be a number in %, with the unit left off.

Here's what some known entries look like.
CSc1ccc(-c2cc3ncnc(SCC(=O)O)c3s2)cc1 ... 2
CCc1nc(-c2cccc(C)c2)c(-c2ccnc(NCc3ccccc3)c2)s1 ... 0
Fc1ccc(-c2ncn(CCCN3CCOCC3)c2-c2cccnc2)cc1 [SB-211743] ... 8

Lab note: next compound to report on.
Recorded %Inh for Cc1nnc(-c2ccc3occ(-c4ccc(C(C)O)cc4)c3c2)o1 (stereo not drawn) , please?
16

----------
// reported %Inh for each item listed
tested on: GRK3; construct: gene ADRBK2; conditions: concentration: 1 μM, replicates: in singlicate; n = 1
The reply should be a number in %, with the unit left off.

Here's what some known entries look like.
[2H]C([2H])(c1cccc(C(F)(F)F)c1C)n1ccn2c(=O)nc(N3CCOCC3)cc12 [GSK2336394] ... 20
COc1cc2c(cc1OCCN1CCN(C)CC1)ncc1c3ccc(C#N)cc3[nH]c21 ... 0
Cc1cccc(Cn2ccn3c(=O)cc(N4CCOCC4)nc23)c1 [GSK2297542] ... 16
CCc1nc(-c2cccc(C)c2)c(-c2ccnc(NCc3ccccc3)c2)s1 ... 6
c1ccc(-c2cc(-c3c[nH]nc3-c3ccccn3)ccn2)cc1 [GW576604] ... 17
CSc1ccc(-c2cc3ncnc(SCC(=O)O)c3s2)cc1 ... 13
Fc1ccc(-c2ncn(CCCN3CCOCC3)c2-c2ccccn2)cc1 [SB-211742] ... 0
COCCNC(=O)c1ccc(-c2cc(C(=O)NC3CC3)cc(F)c2C)cc1 [GW868318] ... 18

Please provide the recorded %Inh for O=c1cc(N2CCOCC2)nc2n(Cc3cccc(C(F)(F)F)c3)ccn12 [GSK2297543] , tested on GRK3.
0

Same again, this time with COc1ccc(COc2cc(-n3cnc4ccccc43)sc2C(N)=O)cc1 [GSK1024304]
10

Same again, this time with COC(=O)Nc1nc2cc(Oc3ccc(NC(=O)Nc4cc(F)ccc4F)cc3)ccc2[nH]1.Cl [GW701424]
50

Same again, this time with COc1ccc(Nc2nccc(N3CCC(NC(=O)Nc4cccc(C(C)=O)c4)C3)n2)cc1 (stereo not drawn) [GSK1379731]
4

Same again, this time with Cc1c(Cn2c(C)nn3c(=O)cc(N4CCOC(C)C4)nc23)cccc1C(F)(F)F (stereo not drawn) [GSK2344444]
0

Same again, this time with COc1ccc(Nc2nccc(N3CCC(NC(=O)Nc4cc(C)ccc4C)C3)n2)cc1 (stereo not drawn) [GSK1379741]
0

Same again, this time with CC(=O)Nc1ccc(COc2ccc(Nc3ccnc4cc(-c5ccccn5)ccc34)cc2)cc1.Cl [GW440148]
17

Same again, this time with NCC(NC(=O)c1cc(-c2cn[nH]c2)c(-c2ccnc3[nH]ccc23)s1)c1ccccc1.O=C(O)C(F)(F)F.O=C(O)C(F)(F)F (stereo not drawn) [GSK1325775]
76

Same again, this time with "Cn1ccc2ncnc(Oc3ccc(NC(=O)Nc4ccncc4)c(Cl)c3)c21"
0

Same again, this time with Cc1cn2c(=O)cc(N3CCOCC3)nc2n1Cc1cccc(Cl)c1Cl [GSK2334006]
0
